molecular target: recombinant PI3 kinase α (Homo sapiens (Human)); test: Enzyme Inhibition Assay (HTRF PI3K enzyme assay, TR-FRET); assay type: biochemical; conditions: read-out: PI3 Kinase Inhibition IC50 values at stated Isozyme (nM) α
Sequence (P42336 whole entry): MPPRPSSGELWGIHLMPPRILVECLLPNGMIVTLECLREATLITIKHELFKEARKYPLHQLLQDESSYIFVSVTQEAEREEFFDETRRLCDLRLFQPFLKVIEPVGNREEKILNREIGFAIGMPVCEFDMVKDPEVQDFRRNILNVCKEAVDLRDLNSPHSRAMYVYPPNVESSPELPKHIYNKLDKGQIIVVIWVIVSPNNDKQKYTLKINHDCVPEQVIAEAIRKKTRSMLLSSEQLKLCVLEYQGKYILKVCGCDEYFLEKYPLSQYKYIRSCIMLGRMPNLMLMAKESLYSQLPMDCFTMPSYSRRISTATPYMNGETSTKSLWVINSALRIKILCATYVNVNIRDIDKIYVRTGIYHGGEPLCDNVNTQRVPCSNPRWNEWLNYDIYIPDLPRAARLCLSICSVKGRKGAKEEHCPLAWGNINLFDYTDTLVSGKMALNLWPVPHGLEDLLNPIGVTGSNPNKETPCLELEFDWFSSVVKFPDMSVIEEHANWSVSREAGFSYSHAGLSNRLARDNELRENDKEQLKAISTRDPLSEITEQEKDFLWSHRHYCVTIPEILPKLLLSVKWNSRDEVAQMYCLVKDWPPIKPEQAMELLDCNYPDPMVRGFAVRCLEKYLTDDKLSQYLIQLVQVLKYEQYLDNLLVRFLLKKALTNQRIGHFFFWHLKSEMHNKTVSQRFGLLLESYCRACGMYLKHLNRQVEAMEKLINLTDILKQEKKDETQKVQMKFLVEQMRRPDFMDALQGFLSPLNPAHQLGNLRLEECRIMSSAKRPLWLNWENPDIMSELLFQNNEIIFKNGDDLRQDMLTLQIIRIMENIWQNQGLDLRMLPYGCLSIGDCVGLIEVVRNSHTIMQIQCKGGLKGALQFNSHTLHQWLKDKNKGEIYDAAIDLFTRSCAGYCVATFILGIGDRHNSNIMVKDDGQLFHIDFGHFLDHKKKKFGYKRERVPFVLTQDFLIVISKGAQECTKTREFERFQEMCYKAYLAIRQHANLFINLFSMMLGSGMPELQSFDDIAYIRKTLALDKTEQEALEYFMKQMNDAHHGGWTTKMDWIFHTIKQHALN
Sequence (P27986 whole entry partner): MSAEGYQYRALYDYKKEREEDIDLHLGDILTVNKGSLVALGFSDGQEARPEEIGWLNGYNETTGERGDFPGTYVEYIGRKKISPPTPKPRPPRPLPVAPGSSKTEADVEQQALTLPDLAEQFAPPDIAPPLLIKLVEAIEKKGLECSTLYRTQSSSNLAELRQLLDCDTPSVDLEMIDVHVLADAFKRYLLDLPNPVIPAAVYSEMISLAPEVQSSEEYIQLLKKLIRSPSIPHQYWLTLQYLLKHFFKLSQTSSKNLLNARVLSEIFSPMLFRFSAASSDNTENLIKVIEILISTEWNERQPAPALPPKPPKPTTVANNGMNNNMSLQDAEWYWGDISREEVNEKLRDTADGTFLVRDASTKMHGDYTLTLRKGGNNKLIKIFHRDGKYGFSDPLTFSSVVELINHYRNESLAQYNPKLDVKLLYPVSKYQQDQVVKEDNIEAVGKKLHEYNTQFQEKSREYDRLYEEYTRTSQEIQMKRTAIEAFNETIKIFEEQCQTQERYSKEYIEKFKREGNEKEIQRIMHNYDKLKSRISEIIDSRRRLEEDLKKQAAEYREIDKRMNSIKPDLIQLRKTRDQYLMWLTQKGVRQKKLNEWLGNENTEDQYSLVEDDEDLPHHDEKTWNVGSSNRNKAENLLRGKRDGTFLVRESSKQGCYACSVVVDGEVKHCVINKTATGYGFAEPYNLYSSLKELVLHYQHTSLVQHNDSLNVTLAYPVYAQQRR
Each entry below lists one item and its recorded log10 IC50 value.
A value of 2 here means IC50 of 100 in nM, since values are log10.

                              smiles_record  reported
0  C#Cc1cccc2nc(Cn3nc(-c4cccc(O)c4)c4c(N)ncnc43)n(Cc3ccccc3Cl)c(=O)c12      2.30

Looking for the measured log10 IC50 of C#Cc1cccc2nc(Cn3nc(-c4cccc(O)c4)c4c(N)ncnc43)n(Cc3cccc(OC)c3)c(=O)c12 , can you help?
3.29

Entry to check: COCC#Cc1cccc2nc(Cn3nc(-c4cccc(O)c4)c4c(N)ncnc43)n(Cc3cccc(C(F)(F)F)c3)c(=O)c12
2.68

Ok, now Nc1ncnc2c1c(-c1ccc(O)cc1)nn2Cc1nc2cccc(C#CCCCC(=O)N3CCCC3)c2c(=O)n1Cc1ccccc1Cl
3.17

For Nc1ncnc2c1c(-c1ccc(O)cc1)nn2Cc1nc2cccc(C#CCCCC(=O)N3CCOCC3)c2c(=O)n1Cc1ccccc1Cl then?
1.30

Proceed to CC(C)NC(=O)CCCC#Cc1cccc2nc(Cn3nc(-c4ccc(O)cc4)c4c(N)ncnc43)n(Cc3ccccc3Cl)c(=O)c12
1.43
